Biological target: BtRDL (Bombus terrestris RDL GABA-gated chloride channel) (Bombus terrestris audax, UniProt A0A8F2J2P3)
Sequence (A0A8F2J2P3 entry or part of it): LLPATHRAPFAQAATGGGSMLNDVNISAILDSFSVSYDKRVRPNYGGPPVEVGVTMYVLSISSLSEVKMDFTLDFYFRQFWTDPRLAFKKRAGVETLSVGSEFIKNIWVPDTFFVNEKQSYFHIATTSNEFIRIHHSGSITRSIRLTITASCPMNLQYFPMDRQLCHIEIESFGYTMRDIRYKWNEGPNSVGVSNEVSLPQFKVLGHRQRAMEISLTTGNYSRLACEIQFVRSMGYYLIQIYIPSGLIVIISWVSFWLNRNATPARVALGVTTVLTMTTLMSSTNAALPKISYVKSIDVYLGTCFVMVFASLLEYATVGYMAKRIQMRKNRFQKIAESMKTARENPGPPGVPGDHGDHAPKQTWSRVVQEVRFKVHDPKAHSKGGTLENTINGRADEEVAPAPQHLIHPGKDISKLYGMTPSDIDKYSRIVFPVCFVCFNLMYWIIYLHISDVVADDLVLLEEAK
Assay: Two-electrode voltage-clamp recording of BtRDL expressed in Xenopus oocytes
Type: cell-based
Conditions: IC50 for block of GABA responses, BtRDL with high apparent affinity for GABA (10 ng cRNA, pGEMHE NheI, three-days); EC50 concentration of GABA 1 μM
QUANTITY: IC50 (µM)

smiles_str=C=C(C)[C@@H]1[C@H]2OC(=O)[C@@H]1[C@]1(O)C[C@H]3O[C@]34C(=O)O[C@H]2[C@]14C reported_value=14

###

Molecular target: BtRDL (Bombus terrestris RDL GABA-gated chloride channel) (Bombus terrestris audax)
Assay: Two-electrode voltage-clamp recording of BtRDL expressed in Xenopus oocytes
Assay type: cell-based
Conditions: GABA EC50, pGEMHE-BtRDL digested with XbaI (3'UTR removed), 1 ng cRNA, three-days post-injection
QUANTITY: EC50 (µM)

compound="NCCCC(=O)O [GABA, γ-aminobutyric acid]" unit_descriptor=µM reported_value=27.6

###

Target: BtRDL (Bombus terrestris RDL GABA-gated chloride channel) (Bombus terrestris audax, UniProt A0A8F2J2P3)
Assay: Two-electrode voltage-clamp recording of BtRDL expressed in Xenopus oocytes
Assay type: cell-based
Details: GABA apparent affinity EC50, BtRDL (-3'UTR), 1 ng cRNA, Day 3 post-injection
pEC50: −log10 of the molar value.
QUANTITY: pEC50

smiles_str=NCCCC(=O)O reported_value=4.53

###

Biological target: BtRDL (Bombus terrestris RDL GABA-gated chloride channel) (Bombus terrestris audax, UniProt A0A8F2J2P3)
Assay: Two-electrode voltage-clamp recording of BtRDL expressed in Xenopus oocytes
Format: cell-based
Conditions: GABA apparent affinity EC50, BtRDL (-3'UTR), 1 ng cRNA, Day 2 post-injection
QUANTITY: EC50 (µM)

smiles_str=NCCCC(=O)O reported_value=28.3

###

Target: BtRDL (Bombus terrestris RDL GABA-gated chloride channel) (Bombus terrestris audax)
Test: Two-electrode voltage-clamp recording of BtRDL expressed in Xenopus oocytes
Type: cell-based
Details: GABA apparent affinity EC50, BtRDL (+3'UTR), 10 ng cRNA, Day 1 post-injection
QUANTITY: EC50 (µM)

molecule="NCCCC(=O)O [GABA, γ-aminobutyric acid]" system_tested="BtRDL (Bombus terrestris RDL GABA-gated chloride channel) (Bombus terrestris audax)" quantity=EC50 reported_value=10.8

###

Molecular target: BtRDL (Bombus terrestris RDL GABA-gated chloride channel) (Bombus terrestris audax)
Assay: Two-electrode voltage-clamp recording of BtRDL expressed in Xenopus oocytes
Assay type: cell-based
Conditions: GABA apparent affinity EC50, BtRDL 1 ng cRNA (+3'UTR) + 10 ng cRNA DmNACHO, Day 1
pEC50: −log10 of the molar value.
QUANTITY: pEC50

smiles_str=NCCCC(=O)O reported_value=4.68

###

Biological target: BtRDL (Bombus terrestris RDL GABA-gated chloride channel) (Bombus terrestris audax, UniProt A0A8F2J2P3)
Assay: Two-electrode voltage-clamp recording of BtRDL expressed in Xenopus oocytes
Format: cell-based
Details: propofol apparent affinity (agonist activation), BtRDL with high apparent affinity for GABA (10 ng cRNA +3'UTR, three-days)
QUANTITY: EC50 (µM)

compound="CC(C)c1cccc(C(C)C)c1O [Propofol, propofol]" reported_value=82.9

###

Biological target: BtRDL (Bombus terrestris RDL GABA-gated chloride channel) (Bombus terrestris audax, UniProt A0A8F2J2P3)
Test: Two-electrode voltage-clamp recording of BtRDL expressed in Xenopus oocytes
Format: cell-based
Conditions: apparent affinity for GABA, BtRDL receptors with low apparent affinity (summary in discussion)
QUANTITY: EC50

compound="NCCCC(=O)O [GABA, γ-aminobutyric acid]" reported_value="~2000 nM"

###

Biological target: BtRDL (Bombus terrestris RDL GABA-gated chloride channel) (Bombus terrestris audax, UniProt A0A8F2J2P3)
Assay: Two-electrode voltage-clamp recording of BtRDL expressed in Xenopus oocytes
Format: cell-based
Conditions: GABA apparent affinity EC50, BtRDL (-3'UTR), 1 ng cRNA, Day 1 post-injection
pEC50: −log10 of the molar value.
QUANTITY: pEC50

molecule="NCCCC(=O)O [GABA, γ-aminobutyric acid]" reported_value=4.53

###

Target: BtRDL (Bombus terrestris RDL GABA-gated chloride channel) (Bombus terrestris audax)
Experiment: Two-electrode voltage-clamp recording of BtRDL expressed in Xenopus oocytes
Assay type: cell-based
Conditions: GABA apparent affinity EC50, BtRDL (+3'UTR), 1 ng cRNA, Day 2 post-injection
pEC50: −log10 of the molar value.
QUANTITY: pEC50

compound="NCCCC(=O)O [GABA, γ-aminobutyric acid]" reported_value=5.36

###

Target: UniProtKB A0A8F2J2P3
Test: Two-electrode voltage-clamp recording of BtRDL expressed in Xenopus oocytes
Assay type: cell-based
Conditions: GABA apparent affinity EC50, BtRDL 1 ng cRNA (+3'UTR) + 10 ng cRNA CeRIC-3, Day 2
pEC50: −log10 of the molar value.
QUANTITY: pEC50

compound="NCCCC(=O)O [GABA, γ-aminobutyric acid]" reported_value=5.30

###

Biological target: BtRDL (Bombus terrestris RDL GABA-gated chloride channel) (Bombus terrestris audax)
Assay: Two-electrode voltage-clamp recording of BtRDL expressed in Xenopus oocytes
Type: cell-based
Details: GABA apparent affinity EC50, BtRDL alone, 1 ng cRNA (+3'UTR), Day 2
QUANTITY: EC50 (µM)

compound="NCCCC(=O)O [GABA, γ-aminobutyric acid]" reported_value=4.6

###

Biological target: BtRDL (Bombus terrestris RDL GABA-gated chloride channel) (Bombus terrestris audax)
Experiment: Two-electrode voltage-clamp recording of BtRDL expressed in Xenopus oocytes
Format: cell-based
Conditions: IC50 for block of GABA responses, BtRDL with low apparent affinity for GABA (1 ng cRNA, pGEMHE XbaI, three-days); EC50 concentration of GABA 30 μM
pIC50: −log10 of the molar value.
QUANTITY: pIC50

compound="C=C(C)[C@@H]1[C@H]2OC(=O)[C@@H]1[C@]1(O)C[C@H]3O[C@]34C(=O)O[C@H]2[C@]14C [picrotoxinin]" reported_value=5.77

###

Target: UniProt:A0A8F2J2P3
Assay: Two-electrode voltage-clamp recording of BtRDL expressed in Xenopus oocytes
Format: cell-based
Conditions: GABA apparent affinity EC50, BtRDL (-3'UTR), 10 ng cRNA, Day 1 post-injection
QUANTITY: EC50 (µM)

smiles_str=NCCCC(=O)O quantity=EC50 reported_value=27.3

###

Target: BtRDL (Bombus terrestris RDL GABA-gated chloride channel) (Bombus terrestris audax)
Test: Two-electrode voltage-clamp recording of BtRDL expressed in Xenopus oocytes
Format: cell-based
Details: GABA EC50, pGEMHE-BtRDL digested with NheI (3'UTR retained), 1 ng cRNA, three-days post-injection
QUANTITY: EC50

smiles_str=NCCCC(=O)O quantity=EC50 reported_value="4 µM"

###

Molecular target: UniProt:A0A8F2J2P3
Experiment: Two-electrode voltage-clamp recording of BtRDL expressed in Xenopus oocytes
Format: cell-based
Conditions: GABA EC50, pSP64GL-BtRDL cRNA containing 3'UTR, 1 ng, BtRDL expressed alone, three-days post-injection
QUANTITY: EC50 (µM)

compound="NCCCC(=O)O [GABA, γ-aminobutyric acid]" system_tested=UniProt:A0A8F2J2P3 reported_value=3.7
